This collection of values is drawn from patent US8895695B2.

Test: Pharmacokinetic study (PK) after single i.v. and i.p. administration
Type: in vivo, male CD-1 mice
Settings: male, CD-1, mouse, in vivo, ip, 10 mg/kg
Method: 2.9. Pharmacokinetic Study (PK) 30 grams (±20%) male CD-1 mice obtained from Charles River Laboratories Deutschland GmbH were used in the study. The vehicle, physiological saline, was added to give a final concentration of 1 mg/ml of the compounds. […] PK analysis was performed on pooled data (generally n=2 or 3) using the software PK solutions 2.0™ (Summit Research Service, Montrose, Colo. 81401 USA). The area under the curve AUC was calculated by the linear trapezoidal rule. […]
ASSAY READOUT: half-life
Kindly format the answer as number then unit.

What half-life value was documented for this molecule, N=C(N)NCCC[C@@H]1NC(=O)[C@@H]2CSSC[C@H](NC(=O)[C@H](Cc3ccc4ccccc4c3)NC(=O)[C@H](CCCNC(=N)N)NC(=O)[C@H](CCCNC(=N)N)NC(=O)[C@H]3CCCN3C(=O)CNC1=O)C(=O)N[C@@H](Cc1ccc(O)cc1)C(=O)N[C@@H](CCCNC(N)=O)C(=O)N[C@@H](CCCCN)C(=O)N1CCC[C@@H]1C(=O)N1CCC[C@H]1C(=O)N[C@@H](Cc1ccc(O)cc1)C(=O)N[C@@H](CCCNC(=N)N)C(=O)N[C@@H](CCCNC(N)=O)C(=O)N2 ?
2.5 h

---

Some molecules, each annotated with its measured Hemolysis at 100 μM.
test system: human red blood cells (hRBC); assay: Hemolysis; format: cell-based
Bridge positions count the residues as written; N and C are the ends. Square brackets hold non-standard residues; d marks the D form. Peptide text beside a SMILES is read from it. 2Nal = N[C@@H](Cc1ccc2ccccc2c1)C(=O)O; Cit = NC(=O)NCCC[C@H](N)C(=O)O; Dab = NCC[C@H](N)C(=O)O; Dap = NC[C@H](N)C(=O)O
Give the number; % is assumed, so skip it.

{"MOLECULE": "CC(C)C[C@@H]1NC(=O)[C@H](CCCNC(=N)N)NC(=O)[C@H](Cc2ccc(O)cc2)NC(=O)[C@@H]2CCCN2C(=O)[C@H]2CCCN2C(=O)[C@H](CCCCN)NC(=O)[C@H](CCC(N)=O)NC(=O)[C@H](Cc2ccc(O)cc2)NC(=O)[C@@H]2CSSC[C@H](NC1=O)C(=O)N[C@@H](CCCNC(=N)N)C(=O)NCC(=O)N1CCC[C@@H]1C(=O)N[C@@H](CCCNC(=N)N)C(=O)N[C@@H](CCCNC(=N)N)C(=O)N[C@@H](Cc1ccc3ccccc3c1)C(=O)N2 [Ex. 97] (cyclo(YRLCRG[dP]RR[2Nal]CYQK[dP]P); disulfide 4-11)", "TEST TARGET": "human red blood cells (hRBC)", "ASSAY READOUT": "Hemolysis at 100 μM", "MEAS VALUE": 0.8}
{"MOLECULE": "N=C(N)NCCC[C@@H]1NC(=O)[C@@H]2CSSC[C@H](NC(=O)[C@H](Cc3c[nH]c4ccccc34)NC(=O)[C@H](CCCNC(=N)N)NC(=O)[C@H](Cc3c[nH]cn3)NC(=O)[C@H]3CCCN3C(=O)CNC1=O)C(=O)N[C@@H](Cc1ccc(O)cc1)C(=O)N[C@@H](CCCNC(N)=O)C(=O)N[C@@H](CCCCN)C(=O)N1CCC[C@@H]1C(=O)N1CCC[C@H]1C(=O)N[C@@H](Cc1ccc(O)cc1)C(=O)N[C@@H](CCCNC(=N)N)C(=O)N[C@@H](CCCNC(N)=O)C(=O)N2 [Ex. 137] (cyclo(YR[Cit]CRG[dP]HRWCY[Cit]K[dP]P); disulfide 4-11)", "TEST TARGET": "human red blood cells (hRBC)", "ASSAY READOUT": "Hemolysis at 100 μM", "MEAS VALUE": 0.5}
{"MOLECULE": "C[C@@H](O)[C@@H]1NC(=O)[C@H](Cc2ccc(O)cc2)NC(=O)[C@@H]2CSSC[C@H](NC(=O)[C@H](CCCNC(N)=O)NC(=O)[C@H](CCCNC(=N)N)NC(=O)[C@H](Cc3ccc(O)cc3)NC(=O)[C@@H]3CCCN3C(=O)[C@H]3CCCN3C(=O)[C@H](CCCCN)NC1=O)C(=O)N[C@@H](CCCNC(=N)N)C(=O)NCC(=O)N1CCC[C@@H]1C(=O)N[C@@H](CCCNC(=N)N)C(=O)N[C@@H](CCCNC(=N)N)C(=O)N[C@@H](Cc1ccc3ccccc3c1)C(=O)N2 [Ex. 133] (cyclo(YR[Cit]CRG[dP]RR[2Nal]CYTK[dP]P); disulfide 4-11)", "TEST TARGET": "human red blood cells (hRBC)", "ASSAY READOUT": "Hemolysis at 100 μM", "MEAS VALUE": 0.1}
{"MOLECULE": "N=C(N)NCCC[C@@H]1NC(=O)[C@@H]2CSSC[C@H](NC(=O)[C@H](Cc3ccc4ccccc4c3)NC(=O)[C@H](CCCNC(=N)N)NC(=O)[C@H](CCCNC(=N)N)NC(=O)[C@H]3CCCN3C(=O)CNC1=O)C(=O)N[C@@H](Cc1ccc(O)cc1)C(=O)N[C@@H](CCCNC(N)=O)C(=O)N[C@@H](CCC(=O)O)C(=O)N1CCC[C@@H]1C(=O)N1CCC[C@H]1C(=O)N[C@@H](Cc1ccc(O)cc1)C(=O)N[C@@H](CCCNC(=N)N)C(=O)N[C@@H](CCCNC(N)=O)C(=O)N2 [Ex. 103] (cyclo(YR[Cit]CRG[dP]RR[2Nal]CY[Cit]E[dP]P); disulfide 4-11)", "TEST TARGET": "human red blood cells (hRBC)", "ASSAY READOUT": "Hemolysis at 100 μM", "MEAS VALUE": 0.2}
{"MOLECULE": "N=C(N)NCCC[C@@H]1NC(=O)[C@@H]2CSSC[C@H](NC(=O)[C@H](Cc3ccc4ccccc4c3)NC(=O)[C@H](CCCNC(=N)N)NC(=O)[C@H](CCN)NC(=O)[C@H]3CCCN3C(=O)CNC1=O)C(=O)N[C@@H](Cc1ccc(O)cc1)C(=O)N[C@@H](CCCNC(N)=O)C(=O)N[C@@H](CCCCN)C(=O)N1CCC[C@@H]1C(=O)N1CCC[C@H]1C(=O)N[C@@H](Cc1ccc(O)cc1)C(=O)N[C@@H](CCCNC(=N)N)C(=O)N[C@@H](CCCNC(N)=O)C(=O)N2 [Ex. 134] (cyclo(YR[Cit]CRG[dP][Dab]R[2Nal]CY[Cit]K[dP]P); disulfide 4-11)", "TEST TARGET": "human red blood cells (hRBC)", "ASSAY READOUT": "Hemolysis at 100 μM", "MEAS VALUE": 0}
{"MOLECULE": "N=C(N)NCCC[C@@H]1NC(=O)[C@@H]2CSSC[C@H](NC(=O)[C@H](Cc3ccc4ccccc4c3)NC(=O)[C@H](CCCNC(=N)N)NC(=O)[C@H](CN)NC(=O)[C@H]3CCCN3C(=O)CNC1=O)C(=O)N[C@@H](Cc1ccc(O)cc1)C(=O)N[C@@H](CCCNC(N)=O)C(=O)N[C@@H](CCCCN)C(=O)N1CCC[C@@H]1C(=O)N1CCC[C@H]1C(=O)N[C@@H](Cc1ccc(O)cc1)C(=O)N[C@@H](CCCNC(=N)N)C(=O)N[C@@H](CCCNC(N)=O)C(=O)N2 [Ex. 135] (cyclo(YR[Cit]CRG[dP][Dap]R[2Nal]CY[Cit]K[dP]P); disulfide 4-11)", "TEST TARGET": "human red blood cells (hRBC)", "ASSAY READOUT": "Hemolysis at 100 μM", "MEAS VALUE": 0.1}

Give its Hemolysis at 100 μM value. Item: N=C(N)NCCC[C@@H]1NC(=O)[C@H](CO)NC(=O)[C@H](CCCNC(N)=O)NC(=O)[C@H](CCCNC(=N)N)NC(=O)[C@H](Cc2ccc(O)cc2)NC(=O)[C@@H]2CCCN2C(=O)[C@H]2CCCN2C(=O)[C@H](CCCCN)NC(=O)[C@H](CCCNC(N)=O)NC(=O)[C@H](Cc2ccc(O)cc2)NC(=O)[C@H](CC(N)=O)NC(=O)[C@H](Cc2c[nH]c3ccccc23)NC(=O)[C@H](CCCNC(=N)N)NC(=O)[C@H](CCCNC(=N)N)NC(=O)[C@H]2CCCN2C(=O)CNC1=O [Ex. 151] (cyclo(YR[Cit]SRG[dP]RRWNY[Cit]K[dP]P))
0.9

Please look up its Hemolysis at 100 μM: N=C(N)NCCC[C@@H]1NC(=O)[C@@H]2CSSC[C@H](NC(=O)[C@H](Cc3ccc4ccccc4c3)NC(=O)[C@H](CCCNC(=N)N)NC(=O)[C@H](CCCNC(=N)N)NC(=O)[C@H]3CCCN3C(=O)CNC1=O)C(=O)N[C@@H](Cc1ccc(O)cc1)C(=O)N[C@@H](CCC(N)=O)C(=O)N[C@@H](CC(N)=O)C(=O)N1CCC[C@@H]1C(=O)N1CCC[C@H]1C(=O)N[C@@H](Cc1ccc(O)cc1)C(=O)N[C@@H](CCCNC(=N)N)C(=O)N[C@@H](CCCNC(N)=O)C(=O)N2 [Ex. 84] (cyclo(YR[Cit]CRG[dP]RR[2Nal]CYQN[dP]P); disulfide 4-11)
0
